experimental.system: LIMK1, P53667
Sequence (P53667 155-268): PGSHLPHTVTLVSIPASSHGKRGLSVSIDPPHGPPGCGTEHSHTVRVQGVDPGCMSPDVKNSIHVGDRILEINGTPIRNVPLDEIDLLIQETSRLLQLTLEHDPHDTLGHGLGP
procedure.details: holdup assay
Set-up: key: below the threshold = too weak to quantify, mostly under pKd 3.1 to 4
recorded.conditions: plain residues with an end cap or a label only (N-terminal biotin on a linker: ttds)
quantity.kind: pKd

Solved entries:
binder | quantity.kind | measured.result
RSLEEEESQL [GRASP, Q7Z6J2] | pKd | 4.27
QSARYRDTEL [TJP2, Q9UDY2] | pKd | below the threshold
SRPQRTQTQV [HPV67-E6, A4U7F2] | pKd | below the threshold
SSRTRRETQL [HPV16-E6, P03126] | pKd | below the threshold
SVWLRKETRV [CYSLTR2, Q9NS75] | pKd | below the threshold

Please report pKd for every entry that follows.
1. PKTPPTDTSV [KIR3DL3, Q8N743]
2. STLTIFETAL [ABCC4, O15439]

Reply:
1: below the threshold; 2: 4.24
